# ASSAYED_SYSTEM: memapsin 2 (Homo sapiens)
# Sequence (P56817 46-501): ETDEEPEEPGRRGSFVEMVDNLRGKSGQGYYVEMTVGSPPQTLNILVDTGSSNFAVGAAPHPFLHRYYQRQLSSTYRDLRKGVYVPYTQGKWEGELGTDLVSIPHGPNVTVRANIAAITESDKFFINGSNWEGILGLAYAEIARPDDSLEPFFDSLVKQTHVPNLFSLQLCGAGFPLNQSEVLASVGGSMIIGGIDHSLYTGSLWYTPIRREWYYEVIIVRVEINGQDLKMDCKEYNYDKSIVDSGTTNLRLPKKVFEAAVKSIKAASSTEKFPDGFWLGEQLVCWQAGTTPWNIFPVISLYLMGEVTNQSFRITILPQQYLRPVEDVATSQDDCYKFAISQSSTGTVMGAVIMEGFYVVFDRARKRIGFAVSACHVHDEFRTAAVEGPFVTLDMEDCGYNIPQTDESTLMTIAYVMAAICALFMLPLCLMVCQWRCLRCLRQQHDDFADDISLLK
# ASSAY_NOTES: Inhibition of memapsin 2 beta-secretase activity (fluorogenic substrate FS-2)
# Type: biochemical
# RUN_PARAMETERS: memapsin 2, pH 4, 37° C., fluorogenic substrate FS-2; read-out: M2Ki
pKi: −log10 of the molar value.
Here the recorded pKi is given for each entry.

Worked examples, 5 compounds total:
| COMPOUND | RESULT |
| --- | --- |
| Cc1csc(CN(C)C(=O)c2cc(C(=O)N[C@@H](Cc3ccccc3)[C@H](O)CNCc3cncc(C(C)C)c3)cc(N3CCC(O)C3)c2)n1 (stereo partly shown) | > 6.52 |
| Cc1csc(CN(C)C(=O)c2cc(C(=O)N[C@@H](Cc3ccccc3)[C@H](O)CNCc3cncc(C(C)C)c3)cc(-n3ccnc3)c2)n1 | > 6.52 |
| Cc1csc(CN(C)C(=O)c2cccc(C(=O)N[C@@H](Cc3ccccc3)[C@H](O)CNCc3cnn(C)c3)c2)n1 | > 6.52 |
| COc1cc(CNC[C@@H](O)[C@H](Cc2ccccc2)NC(=O)c2cccc(C(=O)N(C)Cc3nc(C)cs3)c2)cc(N(C)C)c1 | > 6.52 |
| Cc1csc(CN(C)C(=O)c2cc(C(=O)N[C@@H](Cc3ccccc3)[C@H](O)CNCc3cccc(C(C)(F)F)c3)cc(N(C)C)c2)n1 | > 6.52 |

(Q) Looking for the measured pKi of `Cc1csc(CN(C)C(=O)c2cccc(C(=O)N[C@@H](Cc3ccccc3)[C@H](O)CNCc3cc(-c4ccncc4)cc(C(F)(F)F)c3)c2)n1` , can you help?
(A) > 6.52

(Q) Please give the result for `Cc1csc(CN(C)C(=O)c2cc(C(=O)N[C@@H](Cc3ccccc3)[C@H](O)CNCc3cncc(C(C)C)c3)cc(-c3cnccn3)c2)n1` too.
(A) > 6.52

Values compiled from patent US20100286145A1.
